FYI, the data here is from PubChem BioAssay (NCI).

Test system: A549/ATCC NSCLC
Test Method Notes: NCI-60 one-dose screen, 48 h
Condition Notes: 10 µM unless noted
This is part of a sample that, as a whole, favours compounds with a hit. Of some 83,000 tested, about 20% had one in any assay. Active and inactive are the calls of the source. The calls were made as follows: active = growth percent below 10; inactive = the rest.
Bench note: report the call from true (active), false (inactive)

// below: answered molecules
[
  {
    "Smiles Structure": "c1ccc(COc2ccc(Nc3ncnc4c3cnn4-c3ccccc3)cc2)cc1",
    "Label Class": "false"
  },
  {
    "Smiles Structure": "COc1cc(NC(=O)NCc2ccco2)ccc1-c1ccc(NC(=O)NCc2ccco2)cc1OC",
    "Label Class": "false"
  },
  {
    "Smiles Structure": "Cc1ccc2nc(-c3ccc(N(C)C)c(Br)c3)cn2c1",
    "Label Class": "false"
  },
  {
    "Smiles Structure": "C[C@@H]1C[C@@H]([C@@H](CC2CC(=O)NC(=O)C2)OC(=O)CC(=O)c2ccccc2)C(=O)[C@@H](C)C1",
    "Label Class": "true"
  },
  {
    "Smiles Structure": "O=C1OC2(c3ccccc31)c1ccccc1-c1ccccc12",
    "Label Class": "false"
  }
]

### Prompt Recorded call for `O=C(Nc1nc2c(C(F)(F)F)cccc2s1)c1cc(Cl)ccc1O` ?
### Response true

### Prompt Recorded call for `NC(=O)c1cc(Cl)ccc1NC(=O)c1ccccc1-c1ccccc1` ?
### Response false

### Prompt Recorded call for `CCCCNCCCN(CCCC)CCCNCCCC` ?
### Response false

### Prompt Recorded call for `O=C1/C(=C/c2ccccc2Cl)CCc2ccccc21` ?
### Response false

### Prompt Recorded call for `COc1ccc(/C=C2/SC(=Nc3c(C)nn(-c4ccccc4)c3N)NC2=O)cc1` ?
### Response false

### Prompt Recorded call for `CCOC(=O)CNC(=O)C1(NC(=O)CNC(=O)OCc2ccccc2)CCCC1` ?
### Response false

###

For each entry below, report its growth value.
System: IGROV1 ovarian
Test Method Notes: NCI-60 one-dose screen, 48 h (100 = growth as untreated, 0 = no growth, -100 = all killed)
Condition Notes: 10 µM unless noted
Protocol: Growth inhibition of the IGROV1 human tumor cell line is measured as a screen for anti-cancer activity. Cells are grown in 96 well plates and exposed to the test compound for 48 hours. Compounds are tested at a single concentration, which is 10^-5 M for most compounds. The reported endpoint is percent growth (GI% or GIPRCNT), where numbers from 0 - 100% represent growth inhibition, and numbers from -100% - 0 represent cell death. For example, a value of 40 represents 60% growth inhibition. […]
This is part of a sample that, as a whole, favours compounds with a hit. Of some 83,000 tested, about 20% had one in any assay. Active and inactive are the calls of the source. How the source made its calls: active means growth percent below 10; inactive means the rest.

For each listed entry, give its growth.
1. CC(NNC(=S)N1CCCCCC1)c1ccc2ccccc2n1 (centres undefined)
2. CC[C@H]1CN2CCc3cc(OC)c(OC)cc3C2C[C@@H]1CC1NCCc2cc(OC)c(OC)cc21 (some centres undefined)
3. COc1ccc(C2=NN(C=O)C(c3cccc(Nc4ccnc5cc(Cl)ccc45)c3)C2)cc1 (centres undefined)

### Response
1. 19.3% (inactive)
2. -22.9% (active)
3. 44.1% (inactive)

###

Tested on: OVCAR-5 ovarian
Test Method Notes: NCI-60 one-dose screen, 48 h
Condition Notes: 10 µM unless noted
Compounds without any hit were thinned out: in the full panel of roughly 83,000, 20% have a hit. Activity calls are given as the source filed them. How the source made its calls: active means growth percent below 10; inactive means the rest.
Bench note: report the call from active, inactive

// below: answered molecules
[
  {
    "Molecule": "COc1ccc(NS(=O)(=O)N2CCCCC2)cc1",
    "Label Class": "inactive"
  },
  {
    "Molecule": "NC(=O)NC1(C(=O)O)CCCC1",
    "Label Class": "inactive"
  },
  {
    "Molecule": "Cc1cc(Br)c(C)cc1Br",
    "Label Class": "inactive"
  },
  {
    "Molecule": "C/C(=C\\CCc1ccsc1)CC/C=C(\\C)CCCN1CCSCC1",
    "Label Class": "inactive"
  }
]

### Prompt Recorded call for `CCn1cnc(C[C@H](NC(=O)[C@H](CCCCNC(=O)Nc2cc(C(F)(F)F)cc(C(F)(F)F)c2)NC(=O)Nc2cc(C(F)(F)F)cc(C(F)(F)F)c2)C(=O)OC)c1` ?
### Response active

### Prompt Recorded call for `C[C@H](C(=O)N[C@@H](Cc1ccc(-c2ccccc2)cc1)C(=O)NC1CC(C)(C)NC(C)(C)C1)c1ccc(-c2ccccc2)c(F)c1` ?
### Response active

### Prompt Recorded call for `CCN(CC)CCNCC(=O)Oc1ccc(/C=C/C(=O)CC(=O)/C=C/c2ccc(OC(=O)CNCCN(CC)CC)c(OC)c2)cc1OC` ?
### Response inactive

###

Test system: ACHN renal
Test Method Notes: NCI-60 one-dose screen, 48 h (100 = growth as untreated, 0 = no growth, -100 = all killed)
Condition Notes: 10 µM unless noted
Compounds without any hit were thinned out: in the full panel of roughly 83,000, 20% have a hit.
Value Kind: growth (%)
Answers are plain numbers, in %.

[
  {
    "Molecule": "CCOC(CNCc1cc(C)c2[nH]c3ccccc3c2c1C)OCC",
    "Result Units": "%",
    "growth": 88.3
  },
  {
    "Molecule": "COC(=O)c1cc2oc(/C=N\\NC(=O)c3cc4oc(C)c(C)c4[nH]3)cc2[nH]1",
    "Result Units": "%",
    "growth": 104
  },
  {
    "Molecule": "O[N+]1=CC=CCC1=S.On1ccccc1=S.[Zn]",
    "Result Units": "%",
    "growth": -91.2
  },
  {
    "Molecule": "O=C(/C=C/c1ccc(C(F)(F)F)cc1)c1ccc(Nc2nc(NCCO)nc(NCCO)n2)cc1",
    "Result Units": "%",
    "growth": 83.7
  },
  {
    "Molecule": "CC[C@@H](C)/C=C(C)/C=C/C(=O)c1c(O)c(-c2ccc(O)cc2)cn(OC2CC(=O)CCC(C)OC(=O)CC2O)c1=O (some centres undefined)",
    "Result Units": "%",
    "growth": 0.984
  },
  {
    "Molecule": "O=C1Nc2ccc(Cl)cc2[C@@](C#CC2CC2)(C(F)(F)F)O1",
    "Result Units": "%",
    "growth": 88.6
  },
  {
    "Molecule": "O=C(N/N=C/c1cccc(O)c1)c1ccc(C(F)(F)F)nc1Nc1cccc(C(F)(F)F)c1",
    "Result Units": "%",
    "growth": -6.85
  },
  {
    "Molecule": "COc1ccc(-c2cnc(SCC(=O)Nc3ccc(-c4nc5ccccc5s4)cc3)n2-c2ccc(OC)cc2)cc1",
    "Result Units": "%",
    "growth": 111
  }
]

For each listed entry, give its growth.
1. O=C(COc1cccc(/C=C2\Oc3ccc4ccccc4c3C2=O)c1)c1ccc(Cl)cc1
2. COc1ccc(-c2cc(-c3nnc(SCC(=O)Nc4ccc(C(C)=O)cc4)n3-c3ccccc3)c3ccccc3n2)cc1OC
3. O=C1c2cccc(NCCN=Cc3ccccc3O)c2C(=O)c2c(NCCN=Cc3ccccc3O)cccc21
4. COc1cc(/C=N/NC(=O)c2ccc(C(F)(F)F)nc2Nc2cc(Cl)ccc2C)cc(OC)c1OC
5. Cc1ccc2nc(SCC(=O)Nc3ccc(-c4nc5ccccc5s4)c(Cl)c3)[nH]c2c1
6. CC(=O)c1ccccc1NC(=O)C(C)(c1ccccc1)c1ccccc1
7. Nc1nc2c(nnn2Cc2ccc(Cl)c(Cl)c2)c(=O)[nH]1

### Response
[96.8, 108, 15.4, 104, 106, 83.7, 92.4]

###

Test system: PC-3 prostate
Test Method Notes: NCI-60 one-dose screen, 48 h (100 = growth as untreated, 0 = no growth, -100 = all killed)
Condition Notes: 10 µM unless noted
Method: Growth inhibition of the PC-3 human tumor cell line is measured as a screen for anti-cancer activity. Cells are grown in 96 well plates and exposed to the test compound for 48 hours. Compounds are tested at a single concentration, which is 10^-5 M for most compounds. The reported endpoint is percent growth (GI% or GIPRCNT), where numbers from 0 - 100% represent growth inhibition, and numbers from -100% - 0 represent cell death. For example, a value of 40 represents 60% growth inhibition. […]
This is part of a sample that, as a whole, favours compounds with a hit. Of some 83,000 tested, about 20% had one in any assay.
Threshold check on growth: strictly below 80% is YES; on or above 80% is NO.

// below: answered compounds
[
  {
    "Compound": "CC(NNC(=S)N1CCCCCC1)c1ccc2ccccc2n1 (stereo unspecified)",
    "Target": "PC-3 prostate",
    "Label Class": "YES"
  },
  {
    "Compound": "Nc1ccc(Oc2c(F)c(F)c(Oc3ccc(N)cc3)c(F)c2F)cc1",
    "Target": "PC-3 prostate",
    "Label Class": "NO"
  },
  {
    "Compound": "CCOC(=O)CCC(=O)O[C@H]1[C@H](O[C@@H]2[C@@H](C)[C@H](O[C@H]3C[C@@](C)(OC)[C@@H](O)[C@H](C)O3)[C@@H](C)C(=O)O[C@H](CC)[C@@](C)(O)[C@H](O)[C@@H](C)C(=O)[C@H](C)C[C@@]2(C)O)O[C@H](C)C[C@@H]1N(C)C",
    "Target": "PC-3 prostate",
    "Label Class": "NO"
  },
  {
    "Compound": "COc1ccc(/C=C2/SC(=Nc3c(C)nn(-c4ccccc4)c3N)NC2=O)cc1",
    "Target": "PC-3 prostate",
    "Label Class": "YES"
  },
  {
    "Compound": "CN(C)c1ncnc2c1ncn2C1CCCCO1 (stereo unspecified)",
    "Target": "PC-3 prostate",
    "Label Class": "NO"
  },
  {
    "Compound": "Cc1ccc2nc(SCC(=O)Nc3ccc(-c4nc5ccccc5s4)c(Cl)c3)[nH]c2c1",
    "Target": "PC-3 prostate",
    "Label Class": "NO"
  },
  {
    "Compound": "CCOC(=O)C1C(=O)NC(C(=O)OCC)(C(=O)OCC)C1CC (stereo unspecified)",
    "Target": "PC-3 prostate",
    "Label Class": "NO"
  },
  {
    "Compound": "CN1CCN(c2nc3scc(-c4ccccc4)c3c(=O)[nH]2)CC1",
    "Target": "PC-3 prostate",
    "Label Class": "NO"
  }
]

### Prompt Decide: growth of `COc1ccc(NC(=O)[C@@H]2C[C@H]2c2ccccc2)c(C(N)=O)c1` strictly below 80%?
### Response NO

### Prompt Decide: growth of `O=c1sc2ncnc3ncn1c32` strictly below 80%?
### Response YES

### Prompt Decide: growth of `CN(C)CCCNc1nn2c(=O)c3ccccc3nc2c2ccccc12` strictly below 80%?
### Response YES

### Prompt Decide: growth of `CSc1nc(-c2ccc(O)cc2O)c2c(=O)[nH]c(Nc3ccc(S(=O)(=O)Nc4nc(C)cc(C)n4)cc3)nc2n1` strictly below 80%?
### Response NO

### Prompt Decide: growth of `CC[C@@H](c1ccc(O)c(O)c1)[C@@H](CC)c1ccc(O)c(O)c1` strictly below 80%?
### Response YES

### Prompt Decide: growth of `COc1cc(/C=C/C(=O)c2c(C)n([O-])c3ccccc3[n+]2=O)cc(OC)c1OC` strictly below 80%?
### Response YES
